Ref: patent US20240368150A1

Recorded pEC50 values for a group of molecules are listed next.
- System: primary human T-cells
- Procedure Text: Proliferation assay after 5 days (CellTiter-Glo, CD3 stimulation; PBS counter screen)
- Format: cell-based
- Test Parameters: Homo sapiens, T-cell, 120 h, primary human T-cells, CD3 stimulation, CellTiter-Glo after 5 days; EC50 of fitted sigmoidal curve; read-out: Tcell Proliferation CD3 EC50
On this scale, pEC50 is minus log10 of a concentration expressed in M (mol/L).

>  <Molecule>
N[C@H]1CS(=O)(=O)c2ccc(-c3nnc(C4CC5(CC(O)C5)C4)o3)cc2N(Cc2ccc(Cl)cc2)C1=O (some centres unmarked) [Example 387]

>  <pEC50>
5.95

$$$$

Q) Tell us which pEC50 value is on record for CC(C#N)c1nnc(-c2ccc3c(c2)N(Cc2ccc(Cl)cc2)C(=O)[C@@H](N)CS3(=O)=O)o1 (some centres unmarked) [Example 367]
A) 5.43

Q) Tell us which pEC50 value is on record for NC(c1nc(-c2cc3c(cc2F)S(=O)(=O)C[C@H](N)C(=O)N3Cc2ccc(OC(F)(F)F)cc2)no1)C(F)(F)F (some centres unmarked) [Example 329]
A) 5.27

###

- Test system: primary human T-cells
- Procedure Text: Proliferation assay after 5 days (CellTiter-Glo, CD3 stimulation; PBS counter screen)
- Format: cell-based
- Test Parameters: Homo sapiens, T-cell, 120 h, CD3 stimulation, 5 days; normalized to reference compound A1 as stimulator control = 100%, DMSO neutral control; read-out: Emax proliferation (% activation)
Recorded Emax values for a group of molecules are listed next.

// worked examples, Emax included
>  <Molecule>
CC(C)(C)c1nnc(-c2cc3c(cc2F)S(=O)(=O)C[C@H](N)C(=O)N3Cc2ccc(OCCO)cc2)o1

>  <Experimental Value>
130%

$$$$
>  <Molecule>
COC(=O)N1CCC(c2nnc(-c3cc4c(cc3F)S(=O)(=O)C[C@H](N)C(=O)N4Cc3ccc(Cl)cc3)o2)C1 (some centres unmarked)

>  <Experimental Value>
104%

$$$$
>  <Molecule>
N[C@H]1CS(=O)(=O)c2cc(F)c(-c3nnc(C4CNCCC4(F)F)o3)cc2N(Cc2ccc(Cl)cc2)C1=O (some centres unmarked)

>  <Experimental Value>
31%

$$$$
>  <Molecule>
CC(F)(F)CNc1nnc(-c2ccc3c(c2)N(Cc2ccc(Cl)cc2)C(=O)[C@@H](N)CS3(=O)=O)o1

>  <Experimental Value>
51%

$$$$

Moving on to the next molecule.
Q) Tell us which Emax value is on record for N[C@H]1CS(=O)(=O)c2cc(F)c(-n3cc(Cc4ccc(Cl)cc4)nn3)cc2N(Cc2ccc(Cl)cc2)C1=O
A) 168%

###

- System: primary human T-cells
- Procedure Text: Proliferation assay after 5 days (CellTiter-Glo, CD3 stimulation; PBS counter screen)
- Type: cell-based
- Test Parameters: Homo sapiens, T-cell, 120 h, primary human T-cells, CD3 stimulation, CellTiter-Glo after 5 days; EC50 of fitted sigmoidal curve; read-out: Tcell Proliferation CD3 EC50
Define the label as yes (1) when EC50 is strictly less than 600 nM and as no (0) in all remaining cases.

>  <Molecule>
CC(C)(C)c1nnc(-c2cc3c(cc2F)S(=O)(=O)C[C@H](N)C(=O)N3Cc2ccc(OC(F)(F)F)cc2)o1

>  <Class Assignment>
yes (1)

$$$$
>  <Molecule>
COC(=O)N1CC(n2nnc(-c3cc4c(cc3F)S(=O)(=O)C[C@H](N)C(=O)N4Cc3ccc(Cl)cc3)n2)CC(F)(F)C1 (stereo partly shown)

>  <Class Assignment>
yes (1)

$$$$
>  <Molecule>
N[C@H]1CS(=O)(=O)c2cc(F)c(-c3noc(C4(CO)CCCO4)n3)cc2N(Cc2ccc(Cl)cc2)C1=O (stereo partly shown)

>  <Class Assignment>
no (0)

$$$$
>  <Molecule>
CC1(c2nnc(-c3cc4c(cc3F)S(=O)(=O)C[C@H](N)C(=O)N4Cc3ccc(Cl)cc3)o2)CCOCC1

>  <Class Assignment>
yes (1)

$$$$
>  <Molecule>
CC(C)Oc1ccc(CN2C(=O)[C@@H](N)CS(=O)(=O)c3cc(F)c(-c4noc(C5CN(C)CC(F)(F)C5)n4)cc32)nc1 (stereo partly shown)

>  <Class Assignment>
no (0)

$$$$

Q) Input N[C@H]1CS(=O)(=O)c2cc(F)c(-c3nnc(CC(F)F)o3)cc2N(Cc2ccc(Cl)cc2)C1=O ; condition: EC50 strictly below 600 nM. Does it hold?
A) yes (1)

###

- Tested on: primary human T-cells
- Procedure Text: Proliferation assay after 5 days (CellTiter-Glo, CD3 stimulation; PBS counter screen)
- Format: cell-based
- Test Parameters: Homo sapiens, T-cell, 120 h, CD3 stimulation, 5 days; normalized to reference compound A1 as stimulator control = 100%, DMSO neutral control; read-out: Emax proliferation (% activation)
- Description: Compounds are then added (see next section) to medium only plates. Cells are assessed for proliferation 5 days later by measuring […] using CellTiterGlo (Promega). After 5 days, for detection of ATP which is directly proportional to the number of cells present per well, the CellTiter-Glo® 2.0 Reagent is used. […] Luminescence is measured with PHERAstar FSX (interval time 0.5 sec, gain 3000, focal height 15 mm) and exported as CSV file for analysis in Genedata screener. […]
Parameter: Emax (%)
Enter your answer as a number in %; do not include the unit.

// worked examples, Emax included
>  <Compound>
CCc1ncn(-c2cc3c(cc2F)S(=O)(=O)C[C@H](N)C(=O)N3Cc2ccc(Cl)cc2)n1

>  <Value Units>
%

>  <Emax>
67

$$$$
>  <Compound>
CC(C)(O)c1nnc(-c2cc3c(cc2F)S(=O)(=O)C[C@H](N)C(=O)N3Cc2ccc(Cl)cc2)o1

>  <Value Units>
%

>  <Emax>
97

$$$$
>  <Compound>
CNCC(=O)N[C@H]1CS(=O)(=O)c2cc(F)c(-c3nnc(C(C)(C)C)o3)cc2N(Cc2ccc(Cl)cc2)C1=O

>  <Value Units>
%

>  <Emax>
143

$$$$
>  <Compound>
CC(C)(C)c1nc(-c2cc3c(cc2F)[S+]([O-])C[C@H](N)C(=O)N3Cc2ccc(Cl)cc2)no1 (single isomer, unassigned; epimer a)

>  <Value Units>
%

>  <Emax>
121

$$$$
>  <Compound>
CN1CC(c2nc(-c3cc4c(cc3F)S(=O)(=O)C[C@H](N)C(=O)N4Cc3ccc(Cl)cc3)no2)CC(C)(C)C1 (stereo partly drawn)

>  <Value Units>
%

>  <Emax>
107

$$$$
>  <Compound>
CC(C)(C)c1cc(-c2cc3c(cc2F)S(=O)(=O)C[C@H](N)C(=O)N3Cc2ccc(Cl)cc2)on1

>  <Value Units>
%

>  <Emax>
133

$$$$
>  <Compound>
N[C@H]1CS(=O)(=O)c2cc(F)c(-c3nnc(N4CC5(CCCO5)C4)o3)cc2N(Cc2ccc(Cl)cc2)C1=O

>  <Value Units>
%

>  <Emax>
94

$$$$
>  <Compound>
CN(C)C(=O)C(C)(C)c1nnc(-c2cc3c(cc2F)S(=O)(=O)C[C@H](N)C(=O)N3Cc2ccc(Cl)cc2)o1

>  <Value Units>
%

>  <Emax>
112

$$$$

Q) Recall the reported Emax of CC(C)(C)c1nnc(-c2ccc3c(c2)N(Cc2ccc(N4CCOCC4)cc2)C(=O)[C@@H](N)CS3(=O)=O)o1 on primary human T-cells and write it down.
A) 51

Q) Recall the reported Emax of N[C@H]1CS(=O)(=O)c2cc(F)c(-c3nc4n(n3)CCNC4C(F)(F)F)cc2N(Cc2ccc(OC(F)(F)F)cc2)C1=O (stereo partly drawn) on primary human T-cells and write it down.
A) 71

Q) Recall the reported Emax of COC(=O)N1CCC(OC)(c2nnc(-c3cc4c(cc3F)S(=O)(=O)C[C@H](N)C(=O)N4Cc3ccc(Cl)cc3)o2)CC1 on primary human T-cells and write it down.
A) 97

Q) Recall the reported Emax of CS(=O)(=O)N1CCC2CC2(c2nnc(-c3cc4c(cc3F)S(=O)(=O)C[C@H](N)C(=O)N4Cc3ccc(Cl)cc3)o2)C1 (stereo partly drawn) on primary human T-cells and write it down.
A) 80

Q) Recall the reported Emax of Cc1cc2c(cc1-c1nnc(C(C)C#N)o1)N(Cc1ccc(Cl)cc1)C(=O)[C@@H](N)CS2(=O)=O (stereo partly drawn) on primary human T-cells and write it down.
A) 59

Q) Recall the reported Emax of N[C@H]1CS(=O)(=O)c2cc(F)c(-c3noc(N4CCOC5(CC5)C4)n3)cc2N(Cc2ccc(Cl)cc2)C1=O on primary human T-cells and write it down.
A) 79

###

# pEC50 per entry for primary human T-cells
On this scale, pEC50 is minus log10 of a concentration expressed in M (mol/L).

// worked examples, pEC50 included
>  <Compound>
CCOC(=O)N1CC2CC(c3nc(-c4cc5c(cc4F)S(=O)(=O)C[C@H](N)C(=O)N5Cc4ccc(Cl)cc4)no3)(C2)C1

>  <pEC50>
5.99

$$$$
>  <Compound>
N[C@H]1CS(=O)(=O)c2ccc(-c3nnc(C4(N)CCCC4)o3)cc2N(Cc2ccc(OC(F)(F)F)cc2)C1=O

>  <pEC50>
5.36

$$$$
>  <Compound>
CC(C)(C)c1nnc(-c2cc3c(cc2F)S(=O)(=O)C[C@H](N)C(=O)N3Cc2ccc(Cl)cc2)s1

>  <pEC50>
6.34

$$$$

Q) Tell us which pEC50 value is on record for COC(C)(c1nnc(-c2ccc3c(c2)N(Cc2ccc(Cl)cc2)C(=O)[C@@H](N)CS3(=O)=O)o1)C(F)(F)F (some centres unmarked)
A) 5.89
